Target: Proton Pump (H^+ /K^+ ATPase) (Oryctolagus cuniculus, UniProt P27112)
Construct: The microsomes thus obtained were used as an enzyme source of the in vitro enzyme reaction study of proton pump; from tissue; host or cells: rabbit stomach, mucosal scrapings, microsomes (180,000 g pellet)
Sequence (P27112 whole entry): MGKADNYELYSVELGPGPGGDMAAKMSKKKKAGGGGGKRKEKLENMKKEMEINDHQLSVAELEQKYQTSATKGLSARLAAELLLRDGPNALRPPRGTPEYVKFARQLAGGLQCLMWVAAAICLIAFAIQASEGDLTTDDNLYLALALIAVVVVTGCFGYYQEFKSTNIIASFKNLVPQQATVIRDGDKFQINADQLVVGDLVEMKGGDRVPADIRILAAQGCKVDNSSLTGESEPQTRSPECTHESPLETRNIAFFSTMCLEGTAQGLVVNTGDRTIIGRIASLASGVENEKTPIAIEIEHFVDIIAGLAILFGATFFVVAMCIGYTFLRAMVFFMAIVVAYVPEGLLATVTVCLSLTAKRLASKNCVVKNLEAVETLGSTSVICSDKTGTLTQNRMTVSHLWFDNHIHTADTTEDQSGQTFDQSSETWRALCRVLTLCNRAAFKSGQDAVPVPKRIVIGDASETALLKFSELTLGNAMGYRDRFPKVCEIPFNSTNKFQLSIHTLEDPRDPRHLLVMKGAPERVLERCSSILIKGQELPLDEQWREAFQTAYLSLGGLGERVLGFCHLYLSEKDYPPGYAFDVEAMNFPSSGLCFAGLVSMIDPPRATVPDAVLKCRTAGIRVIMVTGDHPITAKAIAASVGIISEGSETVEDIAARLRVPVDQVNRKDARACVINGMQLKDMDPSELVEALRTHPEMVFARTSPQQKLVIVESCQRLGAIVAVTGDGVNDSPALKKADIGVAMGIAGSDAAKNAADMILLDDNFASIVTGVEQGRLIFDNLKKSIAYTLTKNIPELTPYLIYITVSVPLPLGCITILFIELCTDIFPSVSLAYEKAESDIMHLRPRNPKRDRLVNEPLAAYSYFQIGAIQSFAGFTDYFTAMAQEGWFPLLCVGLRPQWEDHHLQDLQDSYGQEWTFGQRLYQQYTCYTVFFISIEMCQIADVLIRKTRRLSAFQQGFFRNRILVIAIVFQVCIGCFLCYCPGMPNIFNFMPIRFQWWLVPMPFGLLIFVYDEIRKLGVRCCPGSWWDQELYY
Sequence (P18597 whole entry partner): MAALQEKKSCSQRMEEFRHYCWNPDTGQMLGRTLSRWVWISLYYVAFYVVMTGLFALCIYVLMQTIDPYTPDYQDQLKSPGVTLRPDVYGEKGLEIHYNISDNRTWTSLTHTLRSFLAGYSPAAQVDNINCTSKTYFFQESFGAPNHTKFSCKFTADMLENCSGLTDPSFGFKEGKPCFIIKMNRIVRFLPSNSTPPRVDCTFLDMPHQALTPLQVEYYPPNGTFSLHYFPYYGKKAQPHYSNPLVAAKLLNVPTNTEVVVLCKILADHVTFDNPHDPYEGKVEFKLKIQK
Experiment: Inhibition of Proton Pump (H+/K+ ATPase) Activity, in vitro enzyme reaction (Experiment 1)
Format: biochemical, New Zealand white rabbit
Conditions: IC50 of Omeprazole / IC50 of test compound
measured.quantity: Effect ratio

Example molecules with recorded Effect ratio:
{"molecule": "COc1cccc2c(N3CCc4cccc(C)c4C3C)nc(Nc3ccc(F)cc3C)nc12.Cl (stereo not shown) [Example 53]", "test.value": 4.75}
{"molecule": "COc1cccc2c(N3CCc4ccccc4C3)nc(Nc3ccc(F)cc3C)nc12.Cl [Example 31]", "test.value": 5.13}
{"molecule": "CCC1c2ccccc2CCN1c1nc(Nc2ccc(F)cc2C)nc2c(OC)cccc12.Cl (stereo not shown) [Example 46]", "test.value": 0.68}
{"molecule": "Fc1ccc(Nc2nc(N3CCc4ccccc4C3)c3ccccc3n2)cc1 [Example 23]", "test.value": 4.30}
{"molecule": "CC1c2ccccc2CCN1c1nc(Nc2ccc(F)cc2)nc2ccccc12.Cl (stereo not shown) [Example 25]", "test.value": 5.88}
{"molecule": "COc1cccc2c(N3CCc4ccccc4C3C)nc(N(C)c3ccccc3)nc12.Cl (stereo not shown) [Example 40]", "test.value": 8.15}

a = CCOc1cccc2c(N3CCc4ccccc4C3C)nc(Nc3ccc(F)cc3C)nc12.Cl (stereo not shown) [Example 38]
b = COc1cccc2c(N3CCc4ccccc4C3)nc(Nc3ccc(F)cc3)nc12.Cl [Example 30]
c = Cc1ccccc1Nc1nc(N2CCc3ccccc3C2)c2ccccc2n1 [Example 21]
d = CCC1c2ccccc2CCN1c1nc(Nc2ccc(F)cc2)nc2c(OC)cccc12.Cl (stereo not shown) [Example 45]
Task: I would appreciate it if you could sort these 4 molecules by Effect ratio, starting from the smallest number. In plain terms: list the labels in the order you were asked to.
Result: d, a, b, c

a = COc1cccc2c(N3CCc4ccccc4C3C3CC3)nc(Nc3ccc(F)cc3C)nc12.Cl (stereo not shown) [Example 47]
b = COc1cccc2c(N3CCc4ccccc4C3C)nc(Nc3ccc(F)cc3C)nc12.CS(=O)(=O)O (stereo not shown) [Example 60]
c = Cc1cc(F)ccc1Nc1nc(N2CCc3cccc4c3C2CC4)c2ccccc2n1.Cl (stereo not shown) [Example 27]
d = Cl.c1ccc(Nc2nc(N3CCc4ccccc4C3)c3ccccc3n2)cc1 [Example 18]
Task: I would appreciate it if you could sort these 4 molecules by Effect ratio, starting from the smallest number. In plain terms: list the labels in the order you were asked to.
Result: a, c, b, d
(a: 0.49, c: 1.97, b: 5.20, d: 61.67)
